// data source = the Human Domainome abundance scans (Beltran et al. 2025)

B1: Gamma-crystallin C, residues 4 to 79; numbered along this chain, P07315 (parent)
chain: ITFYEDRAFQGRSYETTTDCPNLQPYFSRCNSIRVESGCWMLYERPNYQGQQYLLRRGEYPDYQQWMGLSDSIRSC

Variants of: B1
Method Notes: abundance fitness (aPCA) (normalised: wild type 0, dead -1); higher = more abundant; growth selection in yeast, the domain comes from the species named
Condition Summary: Homo sapiens
I'd appreciate it if you could label each record using abundance fitness and these ranges: bottom bin (below -0.04), middle bin (-0.04 to below -0.01), top bin (-0.01 or more)

Examples from the recorded data:
D19G
bottom bin
G68Q
middle bin
R45Y
top bin

QUERY: Hi there! Could you help me figure out the category for Q52H please?
RESULT: top bin

QUERY: Hi there! Could you help me figure out the category for Q64P please?
RESULT: middle bin

QUERY: Hi there! Could you help me figure out the category for F3L please?
RESULT: middle bin

QUERY: Hi there! Could you help me figure out the category for R45C please?
RESULT: bottom bin

QUERY: Hi there! Could you help me figure out the category for S28H please?
RESULT: middle bin

QUERY: Hi there! Could you help me figure out the category for S75E please?
RESULT: bottom bin

QUERY: Hi there! Could you help me figure out the category for R56M please?
RESULT: top bin

QUERY: Hi there! Could you help me figure out the category for Q65F please?
RESULT: bottom bin

QUERY: Hi there! Could you help me figure out the category for G68S please?
RESULT: top bin
